Data credit: ChEMBL document CHEMBL3351497

- target or test system: Integrin alpha-V/beta-8 (Homo sapiens, UniProt P06756+P26012)
- Sequence (P06756 31-889 limits assumed): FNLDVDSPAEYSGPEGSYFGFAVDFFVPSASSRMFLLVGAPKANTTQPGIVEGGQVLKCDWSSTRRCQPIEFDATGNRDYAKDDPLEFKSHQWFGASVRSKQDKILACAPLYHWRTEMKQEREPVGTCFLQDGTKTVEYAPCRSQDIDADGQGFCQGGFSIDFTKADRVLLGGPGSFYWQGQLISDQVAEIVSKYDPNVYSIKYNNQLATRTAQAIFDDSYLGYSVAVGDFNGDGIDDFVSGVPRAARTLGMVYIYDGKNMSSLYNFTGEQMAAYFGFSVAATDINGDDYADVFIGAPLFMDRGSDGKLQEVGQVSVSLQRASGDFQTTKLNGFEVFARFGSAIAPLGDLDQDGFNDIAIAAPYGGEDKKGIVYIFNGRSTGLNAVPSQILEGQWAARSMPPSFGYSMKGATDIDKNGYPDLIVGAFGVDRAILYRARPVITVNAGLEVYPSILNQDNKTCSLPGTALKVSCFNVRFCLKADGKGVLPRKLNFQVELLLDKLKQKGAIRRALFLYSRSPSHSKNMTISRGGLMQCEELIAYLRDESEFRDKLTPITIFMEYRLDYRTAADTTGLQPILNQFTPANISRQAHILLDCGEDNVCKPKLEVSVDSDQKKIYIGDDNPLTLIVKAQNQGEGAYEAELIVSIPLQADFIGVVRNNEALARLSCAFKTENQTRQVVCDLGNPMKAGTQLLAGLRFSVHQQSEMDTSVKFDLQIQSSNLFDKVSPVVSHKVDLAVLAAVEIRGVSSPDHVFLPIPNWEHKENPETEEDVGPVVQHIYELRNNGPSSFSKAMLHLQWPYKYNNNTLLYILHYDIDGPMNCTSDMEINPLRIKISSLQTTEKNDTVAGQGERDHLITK
- Sequence (P06756 891-1048 limits assumed): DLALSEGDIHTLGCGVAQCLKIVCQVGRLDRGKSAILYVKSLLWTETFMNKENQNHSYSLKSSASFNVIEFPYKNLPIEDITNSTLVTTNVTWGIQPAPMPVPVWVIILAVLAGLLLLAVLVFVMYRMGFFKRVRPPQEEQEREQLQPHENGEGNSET
- Sequence (P26012 43-769 limits assumed): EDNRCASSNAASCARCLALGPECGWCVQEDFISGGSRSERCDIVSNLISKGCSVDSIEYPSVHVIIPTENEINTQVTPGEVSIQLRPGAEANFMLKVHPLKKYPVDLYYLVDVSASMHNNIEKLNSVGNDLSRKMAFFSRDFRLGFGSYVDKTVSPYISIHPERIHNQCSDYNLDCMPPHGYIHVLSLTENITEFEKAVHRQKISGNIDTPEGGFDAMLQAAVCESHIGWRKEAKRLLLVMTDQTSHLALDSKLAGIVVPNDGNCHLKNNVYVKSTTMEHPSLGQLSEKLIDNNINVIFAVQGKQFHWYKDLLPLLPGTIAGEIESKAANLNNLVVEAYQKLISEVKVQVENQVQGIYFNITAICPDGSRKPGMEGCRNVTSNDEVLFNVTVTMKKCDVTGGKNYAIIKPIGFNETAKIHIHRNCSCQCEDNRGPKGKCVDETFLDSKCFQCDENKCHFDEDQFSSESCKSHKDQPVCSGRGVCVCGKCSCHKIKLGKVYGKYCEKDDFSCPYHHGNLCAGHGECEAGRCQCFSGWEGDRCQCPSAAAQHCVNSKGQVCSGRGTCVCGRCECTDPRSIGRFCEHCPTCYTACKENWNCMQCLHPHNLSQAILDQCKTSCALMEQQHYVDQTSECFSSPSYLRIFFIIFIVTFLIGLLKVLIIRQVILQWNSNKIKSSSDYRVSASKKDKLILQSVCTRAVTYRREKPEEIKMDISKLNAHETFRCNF
- assay comment: Inhibition of integrin alphavbeta8 (unknown origin)-mediated K562 cell adhesion to LAPb1 coated surface by fluorescence analysis
I'd be grateful if you could share measured pIC50 for these entries.
Note on pIC50: it is the negative log10 of concentration, concentration in mol/L.

Which value of pIC50 has been reported for COc1ccc(C(CC(=O)O)NC(=O)CCCCc2ccc3c(n2)NCCC3)cc1 (racemic) in the records? 6.30

Fill blank: measured pIC50 of the compound O=C(O)CC(NC(=O)CCCCc1ccc2c(n1)NCCC2)c1cc(Cl)cc(Cl)c1 (racemic) is ____. 6.60

I have this compound here, O=C(O)CC(NC(=O)CCCCc1ccc2c(n1)NCCC2)c1ccc(Cl)c(C(F)(F)F)c1 (single isomer, unassigned; enantiomer 1) , and I need its recorded pIC50. 6.90

Given the compound O=C(O)CC(NC(=O)CCCCc1ccc2c(n1)NCCC2)c1cccc(C(F)(F)F)c1 (racemic) , what is its reported pIC50? 6.80

# pIC50 lookup, item Cc1ccc(C(CC(=O)O)NC(=O)CCCCc2ccc3c(n2)NCCC3)cc1 (racemic) 6.00

Reported pIC50, compound O=C(O)CC(NC(=O)CCCCc1ccc2c(n1)NCCC2)c1ccc(C(F)(F)F)cc1 (racemic) : ____ 6.10
